- Test system: Canis familiaris
- experiment.summary: Time to peak response on lowering of vascular resistance, in dogs when administered intravenously
- Type: organism-based, Canis lupus familiaris
- condition.context: dog, in vivo, iv
property.name: Tp

Please review the following examples before continuing.
CCC1N=C(C)/C(=C(/O)OC(C)C)C(c2ccccc2[N+](=O)[O-])N1C(=O)OCN(Cc1ccccc1)Cc1ccc(Cl)c(Cl)c1 (stereo not drawn): 5.5 min
CC1=NC(C)=C(C(=O)OC(C)C)C(c2ccccc2[N+](=O)[O-])N1C(=O)OCCN(CCc1ccccc1)Cc1ccccc1 (stereo not drawn): 2.7 min
CC1=NC(C)=C(C(=O)OC(C)C)C(c2ccccc2[N+](=O)[O-])N1C(=O)OCCN(Cc1ccccc1)Cc1ccccc1 (stereo not drawn): 2.6 min
CCOC(=O)C1=C(Cl)N=C(C)N(C(=O)OCCN(Cc2ccccc2)Cc2ccc3ccccc3c2)C1c1ccccc1[N+](=O)[O-] (stereo not drawn): 5.2 min
CC1=C(C(=O)OC(C)C)C(c2ccccc2[N+](=O)[O-])N(C(=O)OCCN(Cc2ccccc2)Cc2ccc3ccccc3c2)C(=O)N1 (stereo not drawn): 7.8 min
CCCCOC(=O)C1=C(C)N=C(C)N(C(=O)OCCN(Cc2ccccc2)Cc2ccccc2)C1c1ccccc1[N+](=O)[O-] (stereo not drawn): 4.7 min
CCC1N=C(C)/C(=C(/O)OC(C)C)C(c2ccccc2[N+](=O)[O-])N1C(=O)OCN(Cc1ccccc1)Cc1ccc2ccccc2c1 (stereo not drawn): 7.2 min

Measured Tp, CCCCCCCOC(=O)N1C(=O)NC(C)=C(C(=O)OCC2CC2)C1c1ccccc1[N+](=O)[O-] (stereo not drawn) : 1.9 min

====

- Tested on: Canis familiaris
- experiment.summary: Time to peak response on lowering of vascular resistance, in dogs when administered intravenously
- Type: ADME, organism-based, Canis lupus familiaris
- condition.context: dog, in vivo, iv
property.name: Tp (min)
Please reply with the bare figure in min and do not write the unit itself.

COC(=O)C1=C(C)NC(C)=C(C(=O)OCCN(C)Cc2ccccc2)C1c1cccc([N+](=O)[O-])c1 (centres undefined) [NICARDIPINE]: 1.2

Measured Tp, COC(=O)C1=C(C)NC(C)=C(C(=O)OC)C1c1ccccc1[N+](=O)[O-] [NIFEDIPINE] : 0.7

Measured Tp, CC1=NC(C)=C(C(=O)OC(C)C)C(c2ccccc2[N+](=O)[O-])N1C(=O)OCCN(Cc1ccccc1)Cc1ccc(Cl)c(Cl)c1 (centres undefined) : 10.8

Measured Tp, CC1=NC(C)=C(C(=O)OC(C)C)C(c2ccccc2[N+](=O)[O-])N1C(=O)OCCN(Cc1ccccc1)Cc1ccc2ccccc2c1 (centres undefined) : 7.9

====

- Species: Canis familiaris
- experiment.summary: Effective dose against atrioventricular conduction in dogs at which they prolong atrioventricular conduction time by 30%
- Assay type: functional
- condition.context: Canis lupus familiaris
property.name: ED30 (mg/kg)
Please reply with the bare figure in mg/kg and do not write the unit itself.

Please review the following examples before continuing.
COC(=O)C1=C(C#N)NC(C)=C(C(=O)OC(C)C)C1c1cccc([N+](=O)[O-])c1 (stereo not given): 0.034
CC1=NC(C)=C(C(=O)OC(C)C)C(c2ccccc2[N+](=O)[O-])N1C(=O)OCCN(Cc1ccccc1)Cc1ccc2ccccc2c1 (stereo not given): 0.762
COC(=O)C1=C(C)NC(C)=C(C(=O)OCCN(C)Cc2ccccc2)C1c1cccc([N+](=O)[O-])c1 (stereo not given): 0.175

Measured ED30, CC1=NC(C)=C(C(=O)OCC2CC2)C(c2ccccc2[N+](=O)[O-])N1C(=O)OCCN(CCCc1ccccc1)Cc1ccccc1 (stereo not given) : 0.843

Measured ED30, CC1=NC(C)=C(C(=O)OC(C)C)C(c2ccccc2[N+](=O)[O-])N1C(=O)OCCN(Cc1ccccc1)Cc1ccc(Cl)c(Cl)c1 (stereo not given) : 0.596
